These entries and their values trace back to patent US20230381281A1.

# assayed.system: T1, human GIP receptor (human, UniProt P48546 22-466)
# T1 sequence (looked up): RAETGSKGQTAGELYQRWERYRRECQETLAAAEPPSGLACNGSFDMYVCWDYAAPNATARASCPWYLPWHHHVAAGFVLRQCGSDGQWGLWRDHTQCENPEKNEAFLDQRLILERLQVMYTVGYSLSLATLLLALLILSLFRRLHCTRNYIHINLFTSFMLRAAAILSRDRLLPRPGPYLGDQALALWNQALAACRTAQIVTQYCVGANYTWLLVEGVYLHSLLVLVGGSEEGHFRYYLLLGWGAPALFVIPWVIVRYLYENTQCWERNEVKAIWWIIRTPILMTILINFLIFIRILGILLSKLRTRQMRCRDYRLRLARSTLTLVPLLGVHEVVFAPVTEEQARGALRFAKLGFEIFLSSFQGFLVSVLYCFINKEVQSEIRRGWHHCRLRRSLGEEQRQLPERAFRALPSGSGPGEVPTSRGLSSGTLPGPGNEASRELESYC
# assay.overview: cell-based or functional assay
Bridge positions count the residues as written; N and C are the ends. Square brackets hold non-standard residues; d marks the D form. Ends that are not written are not given here. * marks the point of attachment. Acetyl(2-(4-imidazolyl)) = O=C(Cc1c[nH]cn1)*; Aib = CC(C)(N)C(=O)O
Each entry below lists one item and its recorded In vitro activity compared to native peptide (%) vs GIP value.
recorded.metric: In vitro activity compared to native peptide (%) vs GIP

{"binder": "HGQGTFTSDCSKYLDGQRAQDFVNWLLAGGPSSGAPPPS [Triple agonist of SEQ ID NO: 48]", "modifier.sign": "<", "obs.value": 0.1}
{"binder": "{Acetyl(2-(4-imidazolyl))}-[Aib]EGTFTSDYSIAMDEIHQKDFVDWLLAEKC (bridge 15-19) [Triple agonist of SEQ ID NO: 91]", "modifier.sign": "=", "obs.value": 0.3}
{"binder": "{Acetyl(2-(4-imidazolyl))}-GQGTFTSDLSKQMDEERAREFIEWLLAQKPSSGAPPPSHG [Triple agonist of SEQ ID NO: 17]", "modifier.sign": "<", "obs.value": 0.1}
{"binder": "H[Aib]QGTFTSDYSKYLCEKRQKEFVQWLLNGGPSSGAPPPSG (bridge 16-20) [Triple agonist of SEQ ID NO: 36]", "modifier.sign": "=", "obs.value": 0.2}
{"binder": "H[Aib]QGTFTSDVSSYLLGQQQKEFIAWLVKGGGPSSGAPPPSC [Triple agonist of SEQ ID NO: 5]", "modifier.sign": "<", "obs.value": 0.1}
